Assay System: UniProt:P15056
Sequence (P15056 whole entry): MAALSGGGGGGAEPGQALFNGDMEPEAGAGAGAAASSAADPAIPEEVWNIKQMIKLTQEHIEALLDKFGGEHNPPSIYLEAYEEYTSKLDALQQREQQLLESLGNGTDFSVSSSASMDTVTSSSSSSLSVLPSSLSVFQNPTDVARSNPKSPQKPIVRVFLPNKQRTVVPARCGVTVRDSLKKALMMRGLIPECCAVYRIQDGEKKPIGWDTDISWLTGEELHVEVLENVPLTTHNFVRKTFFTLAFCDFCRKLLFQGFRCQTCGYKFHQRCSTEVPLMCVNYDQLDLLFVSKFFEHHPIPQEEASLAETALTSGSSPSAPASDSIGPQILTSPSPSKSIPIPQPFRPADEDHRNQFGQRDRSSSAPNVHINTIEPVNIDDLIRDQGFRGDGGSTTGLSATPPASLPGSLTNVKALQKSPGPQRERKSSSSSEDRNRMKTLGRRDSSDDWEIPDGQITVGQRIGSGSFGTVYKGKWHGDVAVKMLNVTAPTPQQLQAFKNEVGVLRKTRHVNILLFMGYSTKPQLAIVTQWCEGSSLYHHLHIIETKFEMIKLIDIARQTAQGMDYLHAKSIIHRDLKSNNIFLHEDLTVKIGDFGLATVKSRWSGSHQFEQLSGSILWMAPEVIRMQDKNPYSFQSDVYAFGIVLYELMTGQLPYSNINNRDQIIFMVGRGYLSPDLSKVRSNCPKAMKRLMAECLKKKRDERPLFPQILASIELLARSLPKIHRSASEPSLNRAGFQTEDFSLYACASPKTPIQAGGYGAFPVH
Experimental Details: B-Raf kinase assay (Eurofins Panlabs, radiometric)
Format: biochemical
Design: purchased Eurofins Panlabs Inc. (contract assay service)
Condition Label: IC50 B-Raf, Table 5
pIC50: −log10 of the molar value.
Property Name: pIC50

>>> assay_value("CC(C)(C)c1nc(-c2cccc(NS(=O)(=O)c3c(F)cccc3F)c2F)c(-c2ccnc(Nc3ccccc3)n2)s1")
"5.30 to 6.30"

---

Assay System: LIMK1(h) (Homo sapiens, UniProt P53667)
Sequence (P53667 whole entry): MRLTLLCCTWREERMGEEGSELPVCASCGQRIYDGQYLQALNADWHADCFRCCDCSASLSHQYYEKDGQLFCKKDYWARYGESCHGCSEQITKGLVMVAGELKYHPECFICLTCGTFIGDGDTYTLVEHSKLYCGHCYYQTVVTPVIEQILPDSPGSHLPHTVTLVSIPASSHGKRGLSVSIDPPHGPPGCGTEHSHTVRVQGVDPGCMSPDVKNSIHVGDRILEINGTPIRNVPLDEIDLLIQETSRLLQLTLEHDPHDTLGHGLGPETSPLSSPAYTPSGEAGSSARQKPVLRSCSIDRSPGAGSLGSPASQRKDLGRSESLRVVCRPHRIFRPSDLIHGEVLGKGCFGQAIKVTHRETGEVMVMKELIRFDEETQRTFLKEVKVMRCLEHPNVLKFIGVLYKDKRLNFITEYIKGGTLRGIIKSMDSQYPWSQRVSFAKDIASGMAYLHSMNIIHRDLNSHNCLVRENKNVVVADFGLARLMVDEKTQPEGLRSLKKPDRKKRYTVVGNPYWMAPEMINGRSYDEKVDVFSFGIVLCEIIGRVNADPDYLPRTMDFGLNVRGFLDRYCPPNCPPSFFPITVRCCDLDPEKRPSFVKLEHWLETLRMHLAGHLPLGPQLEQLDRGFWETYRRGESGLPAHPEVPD
Experimental Details: LIMK1 kinase assay (Eurofins Panlabs, radiometric)
Assay type: biochemical
Parameters: purchased Eurofins Panlabs Inc. (contract assay service)
Property Name: IC50

>>> assay_value("CC(C)(C)c1nc(-c2cccc(NS(=O)(=O)c3c(F)cccc3F)c2F)c(-c2ccnc(Nc3ccccc3)n2)s1 [Compound 1]")
"0.01 to 0.1 µM"
